Value source: patent US11306092B2

tested target: human TLR9 (Homo sapiens)
experiment summary: TLR9 inhibition reporter assay (HEK-Blue SEAP reporter)
test conditions: HEK-Blue cells overexpressing human TLR9; ODN2006 5 nM; 22 hour incubation
From the text: TLR7/8/9 Inhibition Reporter Assays HEK-Blue™-cells (Invivogen) overexpressing human TLR7, TLR8 or TLR9 receptors were used for screening inhibitors of these receptors using an inducible SEAP (secreted embryonic alkaline phosphatase) reporter gene under the control of the IFN-β minimal promoter fused to five NF-κB and AP-1-binding sites. […]
Reported IC50 values for the following compounds.
Note: unit nM is implicit; provide only the numeric part.

>>> reported_measurement("CNCCNC1CCC(Nc2ccc3[nH]c(-c4ccc(OC)c(OC)c4)c(C(C)C)c3c2)CC1 (single isomer, unassigned) [Example 30]")
281
>>> reported_measurement("CCc1c(-c2ccc(OC)c(OC)c2)[nH]c2ccc(N(CC)C3CCN(C4CCN(C)CC4)CC3)cc12")
627
>>> reported_measurement("Cc1c(-c2ccnc3[nH]ccc23)[nH]c2ccc(N3CCN(C4CCN(C)CC4)CC3)cc12")
124

Given the entry COc1ccc(-c2[nH]c3ccc(N4CCC(N(C)C)C4=O)cc3c2C(C)C)cc1OC (stereo not shown) [Example 4] , what IC50 was observed with human TLR9 (Homo sapiens)? 9210

Given the entry `COc1ccc(-c2[nH]c3ccc(N4CCC(N(C)C)CC4)cc3c2C(C)C)cc1OC` , what IC50 was observed with human TLR9 (Homo sapiens)? 2530

Given the entry `COc1ccc(-c2[nH]c3ccc(N4CCC(N5CCCN(C(C)=O)CC5)CC4)cc3c2C(C)C)cc1OC` , what IC50 was observed with human TLR9 (Homo sapiens)? 4640

Given the entry `COc1ccc(-c2[nH]c3ccc(N4CCC(N5CCCN(C)CC5)CC4)cc3c2C(C)C)cc1OC` , what IC50 was observed with human TLR9 (Homo sapiens)? 1690

Given the entry `CCc1c(-c2ccc(OC)c(OC)c2)[nH]c2cc(C(C)C)c(N3CCN(C4CCN(C(C)C)CC4)CC3)cc12` , what IC50 was observed with human TLR9 (Homo sapiens)? 2610

Given the entry `COc1ccc(-c2[nH]c3ccc(N4CCC(NC5CCN(C(C)C)CC5)CC4)cc3c2C(C)C)cc1OC` , what IC50 was observed with human TLR9 (Homo sapiens)? 322

Given the entry COc1ccc(-c2[nH]c3ccc(N4CC5CCCNC5C4)cc3c2C(C)C)cc1OC (stereo not shown) , what IC50 was observed with human TLR9 (Homo sapiens)? 2460

Given the entry `CCN1CCN(C2CCN(c3ccc4[nH]c(-c5ccc(OC)c(OC)c5)c(C(C)C)c4c3)CC2)CC1` , what IC50 was observed with human TLR9 (Homo sapiens)? 929

Given the entry CNCCNC1CCN(c2ccc3[nH]c(-c4ccnc(C)c4)c(C(C)C)c3c2)C1=O (stereo not shown) , what IC50 was observed with human TLR9 (Homo sapiens)? 488

Given the entry `COc1ccc(-c2[nH]c3ccc(N4CC5(CCCNC5)C4)cc3c2C(C)C)cc1OC` , what IC50 was observed with human TLR9 (Homo sapiens)? 2650

Given the entry `Cc1c(-c2ccnc3[nH]ccc23)[nH]c2ccc(N3CCN(C4CCN(C(C)C)CC4)CC3)cc12` , what IC50 was observed with human TLR9 (Homo sapiens)? 327

Given the entry `COc1ccc(-c2[nH]c3ccc(N4CCN(C5CCN(C(C)C)CC5)CC4)cc3c2C)cc1OC` , what IC50 was observed with human TLR9 (Homo sapiens)? 577

###

tested target: human TLR9 (Homo sapiens)
Sequence (Q9NR96 26-1032): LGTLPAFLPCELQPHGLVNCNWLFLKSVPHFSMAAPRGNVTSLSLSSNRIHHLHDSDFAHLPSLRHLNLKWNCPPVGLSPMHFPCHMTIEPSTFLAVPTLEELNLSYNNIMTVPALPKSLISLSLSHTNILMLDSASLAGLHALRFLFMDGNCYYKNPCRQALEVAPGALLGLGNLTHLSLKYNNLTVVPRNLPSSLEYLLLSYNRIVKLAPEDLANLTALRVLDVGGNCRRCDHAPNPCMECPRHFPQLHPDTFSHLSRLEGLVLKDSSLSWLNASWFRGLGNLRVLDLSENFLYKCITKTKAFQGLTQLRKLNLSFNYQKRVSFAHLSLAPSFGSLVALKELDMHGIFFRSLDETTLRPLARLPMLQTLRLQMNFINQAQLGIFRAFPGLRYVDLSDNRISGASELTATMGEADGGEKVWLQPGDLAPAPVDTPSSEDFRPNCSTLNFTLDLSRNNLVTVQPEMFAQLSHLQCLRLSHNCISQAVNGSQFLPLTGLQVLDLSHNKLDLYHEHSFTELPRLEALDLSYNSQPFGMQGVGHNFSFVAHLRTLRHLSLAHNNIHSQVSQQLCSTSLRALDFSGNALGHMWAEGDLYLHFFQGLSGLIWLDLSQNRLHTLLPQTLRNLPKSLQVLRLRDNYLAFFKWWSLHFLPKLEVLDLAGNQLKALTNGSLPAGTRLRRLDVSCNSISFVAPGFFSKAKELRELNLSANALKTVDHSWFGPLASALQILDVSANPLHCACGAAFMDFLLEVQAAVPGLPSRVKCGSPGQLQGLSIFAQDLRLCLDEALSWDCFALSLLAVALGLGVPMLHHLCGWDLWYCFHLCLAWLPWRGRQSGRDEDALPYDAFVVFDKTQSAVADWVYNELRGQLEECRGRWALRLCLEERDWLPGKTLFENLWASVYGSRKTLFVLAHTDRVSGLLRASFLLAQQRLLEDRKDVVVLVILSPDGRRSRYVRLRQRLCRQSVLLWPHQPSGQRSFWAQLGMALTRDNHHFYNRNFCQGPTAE
experiment summary: TLR9 inhibition reporter assay (HEK-Blue SEAP reporter)
test conditions: HEK-Blue cells overexpressing human TLR9; ODN2006 5 nM; 22 hour incubation
Reported IC50 values for the following compounds.

Illustrative cases are given below, each with its answer.
>>> reported_measurement("COc1ccc(-c2[nH]c3ccc(NC4CCC(N5CCC(N(C)C)CC5)CC4)cc3c2C(C)C)cc1OC (stereo not shown)")
"817 nM"
>>> reported_measurement("CCC[C@@H](N)C(=O)Nc1ccc2[nH]c(-c3ccc(OC)c(OC)c3)c(C(C)C)c2c1")
"7830 nM"
>>> reported_measurement("COc1ccc(-c2[nH]c3ccc(NC(=O)[C@@H](N)CCCN)cc3c2C(C)C)cc1OC")
"> 50000 nM"
>>> reported_measurement("COc1ccc(-c2[nH]c3ccc(NC4CCC(N(C)CCCN(C)C)CC4)cc3c2C(C)C)cc1OC (stereo not shown) [Example 43]")
"477 nM"
>>> reported_measurement("COc1ccc(-c2[nH]c3ccc(N4CCC(NCCCN(C)C)CC4)cc3c2C(C)C)cc1OC [Example 77]")
"1980 nM"

Look up IC50 for this compound: `CCc1c(-c2ccnc(OC)c2)[nH]c2ccc(N3CCN(C4CCN(CC(C)C)CC4)CC3)cc12` 470 nM

Look up IC50 for this compound: `COc1ccc(-c2[nH]c3ccc(N4CCC(N5CCN(CC(C)C)CC5)CC4)cc3c2C(C)C)cc1OC` 1940 nM

###

tested target: human TLR7 (Homo sapiens)
Sequence (Q9NYK1 27-1049): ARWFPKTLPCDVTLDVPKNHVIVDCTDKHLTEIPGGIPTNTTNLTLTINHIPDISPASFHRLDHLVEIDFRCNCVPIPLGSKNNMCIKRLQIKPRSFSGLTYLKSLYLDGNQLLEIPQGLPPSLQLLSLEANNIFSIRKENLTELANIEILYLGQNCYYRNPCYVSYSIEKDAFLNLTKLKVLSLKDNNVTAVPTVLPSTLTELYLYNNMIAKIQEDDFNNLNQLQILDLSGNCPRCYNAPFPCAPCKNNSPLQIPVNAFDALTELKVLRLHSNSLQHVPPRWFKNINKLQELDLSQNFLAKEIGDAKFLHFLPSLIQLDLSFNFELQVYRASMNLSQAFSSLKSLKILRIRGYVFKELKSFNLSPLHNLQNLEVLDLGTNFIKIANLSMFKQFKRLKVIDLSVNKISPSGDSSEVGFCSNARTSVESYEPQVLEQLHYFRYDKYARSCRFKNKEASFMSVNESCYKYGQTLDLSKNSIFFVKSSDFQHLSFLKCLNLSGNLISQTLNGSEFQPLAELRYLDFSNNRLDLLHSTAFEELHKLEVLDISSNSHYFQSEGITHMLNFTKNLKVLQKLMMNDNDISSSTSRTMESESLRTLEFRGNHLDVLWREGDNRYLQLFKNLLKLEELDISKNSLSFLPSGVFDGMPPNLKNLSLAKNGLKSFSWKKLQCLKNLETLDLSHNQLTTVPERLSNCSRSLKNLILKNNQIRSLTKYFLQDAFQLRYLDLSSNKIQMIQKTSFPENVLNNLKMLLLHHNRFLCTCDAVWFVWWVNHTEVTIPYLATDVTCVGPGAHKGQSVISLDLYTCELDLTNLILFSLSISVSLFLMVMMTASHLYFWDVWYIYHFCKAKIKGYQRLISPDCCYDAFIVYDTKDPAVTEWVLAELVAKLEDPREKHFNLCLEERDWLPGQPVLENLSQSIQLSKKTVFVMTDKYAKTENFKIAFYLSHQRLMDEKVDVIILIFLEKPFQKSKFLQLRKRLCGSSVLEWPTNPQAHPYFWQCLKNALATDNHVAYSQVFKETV
experiment summary: TLR7 inhibition reporter assay (HEK-Blue SEAP reporter)
test conditions: HEK-Blue cells overexpressing human TLR7; gardiquimod 7.5 μM; 22 hour incubation
readout kind: log10 of IC50 (log10 of the value in nM)
Response schema: value (number) is log10 of IC50 in units of nM.

Illustrative cases are given below, each with its answer.
>>> reported_measurement("COc1ccc(-c2[nH]c3ccc(N(C)CC4CCCN4C)cc3c2C(C)C)cc1OC (stereo not shown)")
3.12
>>> reported_measurement("COc1ccc(-c2[nH]c3ccc(N4CCC(N5CCN(CC(C)C)CC5)CC4)cc3c2C(C)C)cc1OC")
2.06
>>> reported_measurement("Cc1c(-c2[nH]c3ccc(N4CCC(N(C)C)CC4)cc3c2C(C)C)cn(C)c(=O)c1Cl")
0.38
>>> reported_measurement("COc1ccc(-c2[nH]c3ccc(N4CCC(NC5CCN(C(C)C)CC5)CC4)cc3c2C(C)C)cc1OC")
1.56
>>> reported_measurement("COc1ccc(-c2[nH]c3ccc(NC4CCC(N5CCN(C6CCCC6)CC5)CC4)cc3c2C(C)C)cc1OC (stereo not shown) [Example 57]")
2.55
>>> reported_measurement("COc1ccc(-c2[nH]c3ccc(N4CCC(N5CCC(N(C)C)CC5)CC4)cc3c2C(C)C)cc1OC")
2.46

Given the entry `CCc1c(-c2ccc(OC)c(OC)c2)[nH]c2ccc(N3CCN(C4CCN(C)CC4)CC3(C)C)cc12` , what log10 of IC50 was observed with human TLR7 (Homo sapiens)? 1.98
